- condition.details: bacteroides thetaiotaomicron, 12 h, 2 µM
- Description: The drug is tested on Bacteroides thetaiotaomicron strain: 3731 for biotransformation. The drug concentrations were measured before and after a 12-h incubation by liquid-chromatography-coupled mass spectrometry (LC–MS)
parameter.measured: Bacterial Biotransformation

Example entries begin here.
[
  {
    "molecule": "Br.CN(C)CCCC1(c2ccc(F)cc2)OCc2cc(C#N)ccc21 (stereo not drawn) [CITALOPRAM HYDROBROMIDE]",
    "Bacterial Biotransformation": "Compound NOT metabolized"
  },
  {
    "molecule": "CCN(CC)CCNC(=O)c1cc(Cl)c(N)cc1OC [METOCLOPRAMIDE]",
    "Bacterial Biotransformation": "Compound NOT metabolized"
  },
  {
    "molecule": "CC(C)NCC(O)COc1ccc(CCOCC2CC2)cc1 (stereo not drawn)",
    "Bacterial Biotransformation": "Compound NOT metabolized"
  },
  {
    "molecule": "CCOc1ccc(NC(C)=O)cc1",
    "Bacterial Biotransformation": "Compound NOT metabolized"
  }
]

Find the recorded Bacterial Biotransformation belonging to CSc1ccc2c(c1)C(N1CCN(C)CC1)Cc1ccccc1S2.O=C(O)/C=C\C(=O)O (stereo not drawn) and report it.
Compound NOT metabolized

Entry to check: COc1ccc2[nH]c([S+]([O-])Cc3ncc(C)c(OC)c3C)nc2n1 (stereo not drawn)
Compound metabolized

----------
- condition.details: bacteroides thetaiotaomicron, 12 h, 2 µM
- Description: The drug is tested on Bacteroides thetaiotaomicron strain: 7330 for biotransformation. The drug concentrations were measured before and after a 12-h incubation by liquid-chromatography-coupled mass spectrometry (LC–MS)
parameter.measured: Bacterial Biotransformation

[
  {
    "compound": "COc1ccc(Cc2nccc3cc(OC)c(OC)cc23)cc1OC [PAPAVERINE]",
    "recorded.measurement": "Compound NOT metabolized"
  },
  {
    "compound": "OCCN(CCO)c1nc(N2CCCCC2)c2nc(N(CCO)CCO)nc(N3CCCCC3)c2n1 [DIPYRIDAMOLE]",
    "recorded.measurement": "Compound NOT metabolized"
  },
  {
    "compound": "COc1ccc(CN2CCNCC2)c(OC)c1OC.Cl.Cl [TRIMETAZIDINE DIHYDROCHLORIDE]",
    "recorded.measurement": "Compound metabolized"
  },
  {
    "compound": "COc1ccnc(C[S+]([O-])c2nc3ccc(OC(F)F)cc3[nH]2)c1OC (stereo not drawn) [PANTOPRAZOLE]",
    "recorded.measurement": "Compound metabolized"
  },
  {
    "compound": "Nc1nc2ccc(OC(F)(F)F)cc2s1 [RILUZOLE]",
    "recorded.measurement": "Compound metabolized"
  },
  {
    "compound": "CNCCC(Oc1ccc(C(F)(F)F)cc1)c1ccccc1 (stereo not drawn) [FLUOXETINE]",
    "recorded.measurement": "Compound metabolized"
  },
  {
    "compound": "Clc1cccc(Cl)c1N=C1NCCN1 [CLONIDINE]",
    "recorded.measurement": "Compound metabolized"
  },
  {
    "compound": "CCCC1O[C@@H]2C[C@H]3[C@@H]4CCC5=CC(=O)C=C[C@]5(C)[C@H]4[C@@H](O)C[C@]3(C)[C@]2(C(=O)CO)O1 (stereo partly drawn) [BUDESONIDE]",
    "recorded.measurement": "Compound NOT metabolized"
  }
]

Find the recorded Bacterial Biotransformation belonging to COC(=O)[C@H]1[C@H]2C[C@@H]3c4[nH]c5cc(OC)ccc5c4CCN3C[C@H]2C[C@@H](OC(=O)c2cc(OC)c(OC)c(OC)c2)[C@@H]1OC [RESERPINE] and report it.
Compound NOT metabolized

Entry to check: CN(C)CCc1c[nH]c2ccc(CS(=O)(=O)N3CCCC3)cc12 [ALMOTRIPTAN]
Compound NOT metabolized

Entry to check: CCc1cccc2c3c([nH]c12)C(CC)(CC(=O)O)OCC3 (stereo not drawn) [ETODOLAC]
Compound metabolized

Entry to check: Cc1cc2c(cc1S(N)(=O)=O)S(=O)(=O)CCC2
Compound NOT metabolized

Entry to check: O=C1NCC2(CCN(CCc3ccccc3)CC2)O1 [FENSPIRIDE]
Compound metabolized

Entry to check: Cc1nc(Nc2ncc(C(=O)Nc3c(C)cccc3Cl)s2)cc(N2CCN(CCO)CC2)n1.O [DASATINIB]
Compound NOT metabolized

Entry to check: CCCC(=O)Nc1ccc(OCC(O)CNC(C)C)c(C(C)=O)c1 (stereo not drawn) [ACEBUTOLOL]
Compound NOT metabolized

Entry to check: CC(C)(C#N)c1cc(Cn2cncn2)cc(C(C)(C)C#N)c1 [ANASTROZOLE]
Compound metabolized

Entry to check: O=C1[C@H](CC[C@H](O)c2ccc(F)cc2)[C@@H](c2ccc(O)cc2)N1c1ccc(F)cc1 [EZETIMIBE]
Compound NOT metabolized

Entry to check: CN1[C@@H]2CC[C@H]1C[C@@H](OC(=O)C(CO)c1ccccc1)C2 (stereo partly drawn) [ATROPINE]
Compound NOT metabolized

Source listed as ChEMBL document CHEMBL5303573.
